Biological target: E. coli RNase P holoenzyme (M1 P RNA + rnpA protein) (UniProt P0A7Y8)
Sequence: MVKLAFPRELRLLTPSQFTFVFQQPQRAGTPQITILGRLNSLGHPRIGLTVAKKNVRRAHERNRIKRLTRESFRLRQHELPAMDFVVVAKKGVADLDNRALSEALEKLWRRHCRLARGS
Assay: relative kcat/Km (krel) vs genomic leader AAAGAU (relative (reference leader = 1)); higher = faster RNase P cleavage
Conditions: fraction of substrate reacted: ~9-10% (9.79% repeat 1, 9.1% repeat 2)
Over roughly 4,100 sequences, “relative kcat/Km (krel) vs genomic leader AAAGAU” has its median near 1.7; the highest 2% begin near 6.5. The full list was thinned out, with the highest values kept by preference.
Answer each item with its documented relative kcat/Km.

Query string: # get_value(readout='relative kcat/Km', item= TTCATG )
Result string: 2

Query string: Ok, now CCCGCC
Result string: 2.78

Query string: Again, but for AACTAG
Result string: 3.36

Query string: Please answer likewise for CTCATA
Result string: 3.84

Query string: Thanks! And GACTAG ?
Result string: 1.77

Query string: Continue with GGCATT
Result string: 1.85

Query string: Query ATTCTA next
Result string: 2.57

Query string: Then what about the sequence GTCATT ?
Result string: 4.45

Query string: Try this sequence next: TTCATA
Result string: 4.76

Query string: Thanks! And TCTCGA ?
Result string: 3.05

Query string: Query ATTACC next
Result string: 1.64

Query string: Try this sequence too: TCCATC
Result string: 3.7

Query string: Next sequence: CAACCC
Result string: 1.41

Query string: And then GGGGCG , what is it?
Result string: 0.268

Query string: Then what about the sequence TGCATC ?
Result string: 2.12

Query string: And the next one, ATCATT ?
Result string: 3.39

Query string: And then CCCGCA , what is it?
Result string: 3.38

Query string: Let us now turn to TTCATC
Result string: 4.42

Query string: // same read-out, input: TACTAT
Result string: 4.15

Query string: One more sequence: GACTAA
Result string: 4.15

Query string: Next entry: CCTCCT
Result string: 2.08

Query string: Again, but for TGCATT
Result string: 0.949

Query string: Same thing, different sequence: GACTTA
Result string: 3.03

----------
Hi there, I'd appreciate the recorded relative kcat/Km for every entry that follows.
Target: E. coli RNase P holoenzyme (M1 P RNA + rnpA protein) (UniProt P0A7Y8)
Sequence: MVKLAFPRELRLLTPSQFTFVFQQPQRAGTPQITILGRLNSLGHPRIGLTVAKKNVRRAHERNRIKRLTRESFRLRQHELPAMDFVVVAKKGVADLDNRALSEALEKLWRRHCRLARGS
Experiment: relative kcat/Km (krel) vs genomic leader AAAGAU (relative (reference leader = 1)); higher = faster RNase P cleavage
Conditions: fraction of substrate reacted: ~13-16% (15.68% repeat 1, 13.17% repeat 2)
The full ranking holds about 4,100 sequences; the median of “relative kcat/Km (krel) vs genomic leader AAAGAU” is about 1.7, and the highest 2% start at about 6.5. This is one part of a sample in which the highest values are shown more often than they occur.
Could you keep your reply to the number by itself?

Query string: Can you share its relative kcat/Km? I mean this sequence: GTCACT
Result string: 3.29

Query string: Thanks! And TTTTTA ?
Result string: 2.58

Query string: Entry GCTTAT please
Result string: 3.15

Query string: Another sequence to check: CCTTAT
Result string: 4.47

Query string: Repeat with CTTTAA
Result string: 3.8

Query string: Repeat with CTTTTA
Result string: 2.79

Query string: For ATCACT then?
Result string: 3.58

Query string: Here is the next sequence: GGCACC
Result string: 1.01

Query string: Another sequence to look at: CAAAAC
Result string: 1.59

Query string: Repeat for the following sequence: TTCACC
Result string: 5.63

Query string: // repeat for CTTTAT and report
Result string: 5.78

Query string: Another sequence to look at: TCTTAT
Result string: 5.44
